- measurement target: T1, human B7-H1 expressed on cells (human, UniProt Q9NZQ7 19-290)
- T1 construct: whole, on cells; also called PD-L1; huB7-H1
- T1 sequence (Q9NZQ7 19-290): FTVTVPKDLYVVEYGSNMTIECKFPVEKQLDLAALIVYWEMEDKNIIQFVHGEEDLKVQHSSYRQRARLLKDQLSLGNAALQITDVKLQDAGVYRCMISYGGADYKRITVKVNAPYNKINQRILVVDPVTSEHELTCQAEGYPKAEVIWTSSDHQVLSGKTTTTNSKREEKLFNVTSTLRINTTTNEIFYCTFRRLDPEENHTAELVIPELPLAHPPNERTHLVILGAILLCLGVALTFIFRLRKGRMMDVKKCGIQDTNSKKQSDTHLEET
- method: FACS, 5 µg/ml antibody, 293T cells transfected with human B7-H1
- Experimental: The ability of the purified antibodies to bind to human B7-H1, B7-DC, mouse B7H1 and cynomolgus monkey B7-H1 was determined by FACS analysis. […] Mouse J558 cells expressing mouse B7-H1 were obtained from ATCC (catalog #TIB-6). […] Mouse anti-human B7-DC (PD-L2) antibody (R&D systems cat #MAB1224, detected with goat anti-mouse Fc Cy5, Jackson Immunoresearch) was used as a positive control for B7-DC expression. […]
metric: geo mean

binder	value
3.15G8 (antibody, IgG4, V domains shown, also called mAb 3.15G8) VH: EVQLVESGGGLVQPGGSLRLSCAASGFTFSSYWMSWVRQAPGKGLEWVANIKQDGGEKYYVDSVKGRFTISRDNAKNSLFLQMNSLRAEDTAVYYCARVQLYSDYFDYWGQGTLVTVSS VL: DIQMTQSPSSVSASVGDRVTITCRASQGISSWLAWYQQKSGKAPKLLIYAASGLQSGVPSRFSGSGSGTDFTLTISSLQPEDLATYYCQQSHSLPPTFGQGTKVEIK	1180
2.9D10 (antibody, V domains shown, Tested as hybridoma supernatant or purified antibody; also called mAb 2.9D10) VH: EVQLVESGGGLVQPGGSLRLSCAASGFTFSSYWMSWVRQAPGKGLEWVANIKQDGGEQYYVDSVKGRFTISRDNAKNSLYLQMNSLRAEDTAVYYCARDWNYGYYDMDVWGQGTTVTVSS VL: EIVLTQSPGTLSLSPGERATLSCRASQSVSSNYLAWFQQKPGQAPRLLIFGTSSRATGIPDRFSGSGSGTDFTLTISRLEPEDFAVYYCQQYGSSIFTFGPGTKVDIK	463
2.20A8 (antibody, IgG2, V domains shown, also called mAb 2.20A8) VH: EVQLLESGGGLVQPGGSLRLSCAASGFTFSNYAMSWVRQAPGKGLEWVSAIRGSGGSTYYADSVKGRFTISRDNSKNTLYLQMNSLRAEDTAVYYCAKDLHYDSSGYLDYWGQGTLVTVSS VL: DIQMTQSPSSVSASVGDRVTITCRASQGIRSWLAWYQQKPGKAPKLLIYAISRLQSGVPSRFSGSGSGTDFTLTISSLQPEDFATYYCQQANSFPLTFGGGTKVEIK	463
3.18G1 (antibody, V domains shown, also called mAb 3.18G1) VH: EVQLLESGGDLVQPGGSLRLSCAASGFTFNSYAMSWVRQAPGKGLEWVSTISGSGGFTFSADSVKGRFTISRDNSKNTLFLQMNSLRVEDSAVYSCAKVLVGFNNGCWDYWGQGTLVTVSS VL: SYVLTQPPSVSVAPGQTARITCGGNNIGSKSVHWYQQKPGQAPVLVVYDDSDRPSGIPERFSGSNSGNTATLTISRVEAGDEADYYCQVWDSSNDHVVFGGGTKLTVL	1540
